The reported numbers originate from PubChem BioAssay (NCI).

Would you kindly list growth for each of these compounds?
- Tested on: A549/ATCC NSCLC
- assay_name: NCI-60 one-dose screen, 48 h (100 = growth as untreated, 0 = no growth, -100 = all killed)
- condition_info: 10 µM unless noted
Compounds without any hit were thinned out: in the full panel of roughly 83,000, 20% have a hit.
Output spec: scalar in %, unitless text.

Enquiry: Please give measured growth of the following entry: CCOC(=O)Cn1c(=O)c2c(c3ccccc3n2C)n2nnc(-c3ccccc3)c12
Return: 106

Enquiry: Please give measured growth of the following entry: O=c1[nH]c2c(ccc3cnccc32)c2c1CCC2
Return: 14.9

Enquiry: Please give measured growth of the following entry: Cc1cc(-c2cc(C)c(N)cc2C)c(C)cc1N
Return: 107

Enquiry: Please give measured growth of the following entry: CN1CCN(Cc2ccc(NC(=O)c3cncc(C#Cc4cnccc4C#N)c3)cc2C(F)(F)F)CC1
Return: 90.4

Enquiry: Please give measured growth of the following entry: COc1ccc2c(c1)C(C)Cc1c(ncnc1-n1c(C)nc3ccccc31)N2C (stereo not drawn)
Return: 35.2

Enquiry: Please give measured growth of the following entry: Cn1cc(-c2cc3ncnc(Nc4ccc(CC(=O)Nc5cc(C(C)(C)C)on5)cc4)c3s2)cn1
Return: 21.6

Enquiry: Please give measured growth of the following entry: Nc1nn(C(=O)Nc2ccc(Cc3ccccc3)cc2)c2ccc(Cl)cc12
Return: 38.3

Enquiry: Please give measured growth of the following entry: CNC(C)[C@H]1CCC2C3CCC4C[C@@H](N(C)C(=O)c5ccccc5)CC[C@]4(C)C3CC[C@@]21C (stereo partly drawn)
Return: 39.9

Enquiry: Please give measured growth of the following entry: C=C(C)C1CCC2(C)OC2C1 (stereo not drawn)
Return: 127

Enquiry: Please give measured growth of the following entry: Cc1nc2ccccc2n1CC1C(=O)NC(=O)NC1=O
Return: 96.4

Enquiry: Please give measured growth of the following entry: Cc1ccc(NC2=C(Cl)C(=O)c3nc(C)ccc3C2=O)cc1
Return: 54.6

Enquiry: Please give measured growth of the following entry: CCCCCCNC(=O)Oc1ccc(/C(=C(\C)c2ccc(OC)cc2)c2ccc(OCCN3CCCCC3)cc2)cc1
Return: 61.7

Enquiry: Please give measured growth of the following entry: O=C1CCC/C=C\C[C@H]2C=CC(=O)/C2=C/C[C@H](CCc2cccc(C(F)(F)F)c2)O1
Return: 0.826

* * *

Would you kindly list growth for each of these compounds?
- System: SF-295 CNS
- assay_name: NCI-60 one-dose screen, 48 h (100 = growth as untreated, 0 = no growth, -100 = all killed)
- condition_info: 10 µM unless noted
About 83,000 compounds went through this panel and 20% of them were active in at least one assay; those are over-represented in the sample as a whole.
Output spec: scalar in %, unitless text.

Enquiry: Report the value of growth obtained on SF-295 CNS for COc1ccc(NC(=O)n2nc(/C=C\c3ccc(O)c(OC)c3)cc2/C=C\c2ccc(O)c(OC)c2)cc1 .
Return: 51.6

Enquiry: Report the value of growth obtained on SF-295 CNS for NCCCNc1nc2ccccc2c2c(=O)c3cc(F)cc(Cl)c3sc12 .
Return: 102

Enquiry: Report the value of growth obtained on SF-295 CNS for CCC(=O)Nc1ccc(-c2nc(-c3cccc(OC)c3)c(-c3ccnc(Br)c3)[nH]2)cc1 .
Return: 16.1

Enquiry: Report the value of growth obtained on SF-295 CNS for CCOC(=O)Nc1ccc(-c2nc(-c3cccc(OC)c3)c(-c3ccnc(Br)c3)[nH]2)cc1 .
Return: -36.1

Enquiry: Report the value of growth obtained on SF-295 CNS for NCCCNc1nc2ccccc2c2c(=O)c3cc(F)cc(F)c3sc12 .
Return: 105
